Sourced from patent US20200240995A1

# Test system: Firefly luciferase modified at K529
# ASSAY_INFO: Dual luciferase reporter (DLR) assay in E. coli whole cell lysates
# Type: cell-based
# EXPERIMENTAL_SETUP: BocK at K529; normalized to Renilla luciferase, relative to wild-type CobB
# Procedure: FIG. 3: Evolved CobB variants can activate Firefly luciferase modified at K529. Dual luciferase reporter (DLR) assays were performed with E. coli producing DLR with the indicated modification of K529 in the Firefly enzyme. Activities were normalized to genetically fused Renilla luciferase and plotted relative to the activity observed for wild-type CobB on the same substrate. A) CobB mutant able to discriminate crotonyl-over acetyl-lysine. B) CobB mutants active against protected forms of lysine. […]
A collection of molecules and their measured DLR activity [rel. to wild-type], BocK
TEST_READOUT: DLR activity [rel. to wild-type], BocK

MOLECULE: Dealocase-1: E. coli CobB mutant A37S Y53W R56W I92V (protein, Dealocase-1, E. coli CobB mutant A37S Y53W R56W I92V) KPRVLVLTGAGISAESGIRTFRAADGLWEEHRVEDVSTPEGFDRDPELVQAFWNAWRRQLQQPEIQPNAAHLALAKLQDALGDRFLLVTQNVDNLHERAGNTNVIHMHGELLKVRCSQSGQVLDWTGDVTPEDKCHCCQFPAPLRPHVVWFGEMPLGMDEIYMALSMADIFIAIGTSGHVYPAAGFVHEAKLHGAHTVELNLEPSQVGNEFAEKYYGPASQVVPEFVEKLLKGLKAGSIA
VALUE_MEASURED: 2.88 rel. to wild-type
--
MOLECULE: Dealocase-3: E. coli CobB mutant I131S V148L (protein, Dealocase-3, E. coli CobB mutant I131S V148L) KPRVLVLTGAGISAESGIRTFRAADGLWEEHRVEDVATPEGFDRDPELVQAFYNARRRQLQQPEIQPNAAHLALAKLQDALGDRFLLVTQNSDNLHERAGNTNVIHMHGELLKVRCSQSGQVLDWTGDVTPEDKCHCCQFPAPLRPHLVWFGEMPLGMDEIYMALSMADIFIAIGTSGHVYPAAGFVHEAKLHGAHTVELNLEPSQVGNEFAEKYYGPASQVVPEFVEKLLKGLKAGSIA
VALUE_MEASURED: 0.65 rel. to wild-type
